Each record here notes measured protein stability index.
B1: FUT8 (parent)
chain: YAHQPRTADEIPMEPGDIIGVAGN

# Variants of: B1
# assay_details: protein stability index of a GFP-peptide fusion (GPS, HEK-293T) (PSI 1-6); higher = more stable;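 also: lentivirally expressed fusions sorted by FACS into six bins by GFP to DsRed ratio, PSI derived from sequencing read proportions per bin multiplied by bin number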
# condition_label: c terminus: a fixed tail appended
Form field (numeric): enter value without unit.

{"variant_annotation": "G23A", "observed_property": "protein stability index", "data_value": 3.96}
{"variant_annotation": "P15E", "observed_property": "protein stability index", "data_value": 4.57}
{"variant_annotation": "P15A", "observed_property": "protein stability index", "data_value": 4.38}

[in] Return value of protein stability index for input Y1F , no commentary.
[out] 3.6

[in] Return value of protein stability index for input A8N , no commentary.
[out] 4.22

Data origin, for the record: the supplement of paper PMC10567573
